- Test system: PRKACA-PRKAR2A interaction (SmBiT-PRKACA / LgBiT-PRKAR2A), protein kinase A
- Parameters: NanoLuc complementation counter-screen in cell extract, PRKACA with PRKAR2A, loss of luminescence, detects NanoLuc interference
- Test Conditions: counter-screen for NanoLuc interference; 0.5 h, 20 µM; inhibitor
Where a name gives a salt, the structure may show the parent alone.
Use 10% as the dividing line for Inh (PKA), with the line itself on the yes side and lower values as no.

# input Reported Inh (PKA) reaches at least 10% for c1ccc2c(c1)CCCC2C1=NCCN1 (stereo not drawn) [UM0142214:01, Tetrahydrozoline HCl] ?
# output no

# input Please do the same for COc1ccc(Cn2c3ncnc4c(ncn4Cc4ccc(OC)cc4)c-3nc2=O)cc1 as well.
# output no

# input Please do the same for O=C(O)CCc1nc(-c2ccccc2)c(-c2ccccc2)o1 as well.
# output no

# input Please do the same for Cc1[nH]c2ccccc2c1CCNCc1ccc(/C=C/C(=O)NO)cc1 as well.
# output no

# input Please do the same for N#CC(C#N)=Cc1ccc(O)c(O)c1 as well.
# output yes

# input Please do the same for Nc1ccn([C@@H]2CS[C@H](CO)O2)c(=O)n1 as well.
# output no

# input Please do the same for CC(C)NC[C@@H](C(=O)N1CCN(c2ncnc3c2[C@H](C)C[C@H]3O)CC1)c1ccc(Cl)cc1 [UM0141496:01, GDC-0068 (RG7440)] as well.
# output yes

# input Please do the same for Cc1nn(-c2ccccc2)c(C)c1/C=N/N1CCN(Cc2ccccc2)CC1 as well.
# output yes

# input Please do the same for Cc1cc(C)c(CNC(=O)c2cc(-c3ccc(CN4CCOCC4)cc3)cc3c2cnn3C2CCCC2)c(=O)[nH]1 as well.
# output yes

# input Please do the same for O=C(NCc1ccc(Oc2ccccc2)cc1)c1nc(-c2cc(Br)c(O)c(Br)c2)no1 as well.
# output yes

# input Please do the same for CNc1ncc2cc(-c3cc(NC(=O)NCCC(C)(C)C)c(F)cc3C)c(C)nc2n1 as well.
# output yes

# input Please do the same for COc1ccc(C(CN(C)C)C2(O)CCCCC2)cc1 (stereo not drawn) as well.
# output no

# input Please do the same for CCN(CC)CCCCNc1ncc2cc(-c3cc(OC)cc(OC)c3)c(NC(=O)NC(C)(C)C)nc2n1 as well.
# output no

# input Please do the same for COc1ccc(CCc2nc3cc(-c4c(C)noc4C)ccc3n2C[C@H](C)N2CCOCC2)cc1Cl as well.
# output yes

# input Please do the same for OC[C@H]1O[C@@H](c2ccc(Cl)c(Cc3ccc(O[C@H]4CCOC4)cc3)c2)[C@H](O)[C@@H](O)[C@@H]1O as well.
# output no
